target: human MyD88 (human) (UniProt Q99836); experiment: P3 phage display panning on plate-immobilised MyD88, after round 4, NGS
measured_quantity: Population (%)

Worked examples follow.
Write down Population measured for item "HLLKEFDKKLITAFKD"
0.7

Write down Population measured for item "DHHLDLPRGKAIKPEILG"
7.78

Write down Population measured for item "YLKWGYPWFWDRLRFA"
2.13

(A) LKWGDPYFWSKLRYAM
(B) SSFREGLWRLLELSKK
(C) EWIREQLRPALKERLP
(D) PSEVRKQTGSLAKAFA
Rank order required: Population, descending. Form field (ranking): labels in requested order.
B, C, A, D

(P) LVAHEISKKMKIFATI
(Q) YYLDPSHLRKQSGEFG
Which is greater in Population, the first item P or the second item Q ? State the label of the item chosen.
P
